Values were extracted from the supplement of paper PMC7877785.

- assay.info: self-splicing fitness, log relative to wild type (ln ratio); higher = more splicing; Tetrahymena group I intron in knt gene, E. coli kanamycin selection, DiMSum; sequences stand for … in CUCUCU…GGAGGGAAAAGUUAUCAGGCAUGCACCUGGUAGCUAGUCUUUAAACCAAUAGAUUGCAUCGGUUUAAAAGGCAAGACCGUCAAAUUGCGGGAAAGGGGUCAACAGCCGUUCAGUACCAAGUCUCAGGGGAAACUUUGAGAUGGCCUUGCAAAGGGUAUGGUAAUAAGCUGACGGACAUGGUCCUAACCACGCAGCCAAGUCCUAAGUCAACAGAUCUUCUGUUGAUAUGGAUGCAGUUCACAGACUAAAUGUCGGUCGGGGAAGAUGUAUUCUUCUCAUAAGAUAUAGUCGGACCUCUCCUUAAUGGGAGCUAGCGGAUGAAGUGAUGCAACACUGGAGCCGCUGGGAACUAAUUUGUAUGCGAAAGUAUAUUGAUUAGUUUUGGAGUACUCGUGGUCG;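 also: selection with 25 µg/mL kanamycin versus none on LB agar overnight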
- experimental.setup: 37 °C
Returns the class for an entry based on its self-splicing fitness (ln). Class ranges: low bin: < -2; mid bin: ≥ -2 and < -0.8; high bin: ≥ -0.8

Example cases with answers are listed next.
CUCUAGCAAUAUUACGUUGC	low bin
GCUCAGCAAUAUUACGCGUG	mid bin

Consider the record given below.
## Input State the class of the sequence shown: UCGGAGCAAUAUUACGGUCG
## Output high bin

* * *

self-splicing fitness (ln) reference
- assay.info: self-splicing fitness, log relative to wild type (ln ratio); higher = more splicing; Tetrahymena group I intron in knt gene, E. coli kanamycin selection, DiMSum; sequences stand for … in CUCUCU…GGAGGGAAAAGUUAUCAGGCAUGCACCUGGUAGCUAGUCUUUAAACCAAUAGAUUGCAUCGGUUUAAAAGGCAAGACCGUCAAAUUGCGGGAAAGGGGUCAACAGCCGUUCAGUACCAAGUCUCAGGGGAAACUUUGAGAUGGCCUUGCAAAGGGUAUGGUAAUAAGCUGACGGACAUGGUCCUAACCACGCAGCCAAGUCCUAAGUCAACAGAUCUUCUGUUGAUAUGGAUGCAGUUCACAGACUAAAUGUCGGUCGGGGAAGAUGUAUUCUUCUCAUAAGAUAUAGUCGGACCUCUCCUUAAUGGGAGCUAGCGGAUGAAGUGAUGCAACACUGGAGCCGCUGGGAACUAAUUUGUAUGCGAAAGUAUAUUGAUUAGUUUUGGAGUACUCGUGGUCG
- experimental.setup: 37 °C
When you answer, write just the number.

Would you please look over these solved cases?
GAUAAGCAAUAUUACGACUG	0.14
AAAAAGCAAUAUUACGGUCG	0.273
AAACAGCAAUAUUACGCGUC	-1.78

## Input Which self-splicing fitness (ln) is reported for this sequence? CAUCAGCAAUAUUACGCGCG
## Output 0.438

## Input Which self-splicing fitness (ln) is reported for this sequence? UCUCAGCAAUAUUACGGCAC
## Output -1.79

## Input Which self-splicing fitness (ln) is reported for this sequence? AUACAGCAAUAUUACGACAA
## Output -0.929

## Input Which self-splicing fitness (ln) is reported for this sequence? CUGUAGCAAUAUUACGUACG
## Output -1.05

## Input Which self-splicing fitness (ln) is reported for this sequence? UGUCAGCAAUAUUACGUUUU
## Output -2.23

* * *

- assay.info: self-splicing fitness, log relative to wild type (ln ratio); higher = more splicing; Tetrahymena group I intron in knt gene, E. coli kanamycin selection, DiMSum; sequences stand for … in CUCUCU…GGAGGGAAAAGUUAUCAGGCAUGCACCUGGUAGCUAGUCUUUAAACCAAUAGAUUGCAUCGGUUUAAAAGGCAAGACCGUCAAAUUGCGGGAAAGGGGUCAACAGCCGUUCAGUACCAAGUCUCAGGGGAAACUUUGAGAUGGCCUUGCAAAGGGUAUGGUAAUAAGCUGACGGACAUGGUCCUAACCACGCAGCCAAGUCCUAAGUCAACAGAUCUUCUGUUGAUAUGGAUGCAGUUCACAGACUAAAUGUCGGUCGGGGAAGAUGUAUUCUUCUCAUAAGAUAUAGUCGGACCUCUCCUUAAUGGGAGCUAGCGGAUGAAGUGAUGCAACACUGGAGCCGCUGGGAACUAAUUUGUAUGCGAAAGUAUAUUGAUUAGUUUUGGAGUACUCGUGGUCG
- experimental.setup: 30 °C
readout.type: self-splicing fitness (ln)

UGAAAGCAAUAUUACGAAUA	-0.955
ACGUAGCAAUAUUACGUUCG	-2.69
AUUUAGCAAUAUUACGGCAA	-1.05

## Input Which self-splicing fitness (ln) is reported for this sequence? AGAUAGCAAUAUUACGCUAU
## Output -3.58

## Input Which self-splicing fitness (ln) is reported for this sequence? AAGCAGCAAUAUUACGUGAG
## Output -1.07

* * *

- assay.info: self-splicing fitness, log relative to wild type (ln ratio); higher = more splicing; Tetrahymena group I intron in knt gene, E. coli kanamycin selection, DiMSum; sequences stand for … in CUCUCU…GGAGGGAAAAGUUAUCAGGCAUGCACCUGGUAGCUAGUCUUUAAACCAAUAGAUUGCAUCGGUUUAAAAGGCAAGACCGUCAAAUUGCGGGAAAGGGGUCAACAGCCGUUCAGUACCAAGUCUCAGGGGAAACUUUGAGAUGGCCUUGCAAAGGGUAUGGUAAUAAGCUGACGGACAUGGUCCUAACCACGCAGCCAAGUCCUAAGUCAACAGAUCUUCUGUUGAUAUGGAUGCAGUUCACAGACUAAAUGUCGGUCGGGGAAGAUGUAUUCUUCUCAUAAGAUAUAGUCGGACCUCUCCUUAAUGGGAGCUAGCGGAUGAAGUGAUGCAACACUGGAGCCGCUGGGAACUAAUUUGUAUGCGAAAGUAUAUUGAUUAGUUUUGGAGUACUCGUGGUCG
- experimental.setup: 30 °C
Returns the class for an entry based on its self-splicing fitness (ln). Class ranges: bottom end = under -3, midrange = from -3 up to -2, top end = -2 and over

Example cases with answers are listed next.
GCGCAGCAAUAUUACGCGCC	bottom end
CAGAAGCAAUAUUACGGGUU	bottom end
GACGAGCAAUAUUACGGGCU	bottom end
GCGAAGCAAUAUUACGCCGG	top end
AAUUAGCAAUAUUACGAGCA	top end

## Input State the class of the sequence shown: AUUAAGCAAUAUUACGUGCA
## Output top end

* * *

- assay.info: self-splicing fitness, log relative to wild type (ln ratio); higher = more splicing; Tetrahymena group I intron in knt gene, E. coli kanamycin selection, DiMSum; sequences stand for … in CUCUCU…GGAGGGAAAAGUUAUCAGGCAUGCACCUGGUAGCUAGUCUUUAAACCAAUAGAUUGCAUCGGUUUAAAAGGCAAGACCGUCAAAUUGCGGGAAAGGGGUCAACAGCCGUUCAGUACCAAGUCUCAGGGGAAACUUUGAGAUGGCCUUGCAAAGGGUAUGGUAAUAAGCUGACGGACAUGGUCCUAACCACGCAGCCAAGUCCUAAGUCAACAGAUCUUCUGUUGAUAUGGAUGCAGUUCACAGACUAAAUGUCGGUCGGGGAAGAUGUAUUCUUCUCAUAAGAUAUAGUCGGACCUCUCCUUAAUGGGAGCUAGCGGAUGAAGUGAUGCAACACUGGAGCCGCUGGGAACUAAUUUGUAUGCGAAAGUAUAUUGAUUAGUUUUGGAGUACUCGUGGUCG
- experimental.setup: 37 °C
self-splicing fitness (ln) reference
When you answer, write just the number.

GUCCAGCAAUAUUACGCAUA	-0.0806
AAAGAGCAAUAUUACGCACU	-0.12
UGAGAGCAAUAUUACGCCUG	-1.91
CACGAGCAAUAUUACGAUAA	-2.32

## Input Which self-splicing fitness (ln) is reported for this sequence? GUUAAGCAAUAUUACGGUUG
## Output -1.22

## Input Which self-splicing fitness (ln) is reported for this sequence? GACCAGCAAUAUUACGAUUC
## Output -0.543

## Input Which self-splicing fitness (ln) is reported for this sequence? GACUAGCAAUAUUACGCAGC
## Output -2.2

* * *

- assay.info: self-splicing fitness, log relative to wild type (ln ratio); higher = more splicing; Tetrahymena group I intron in knt gene, E. coli kanamycin selection, DiMSum; sequences stand for … in CUCUCU…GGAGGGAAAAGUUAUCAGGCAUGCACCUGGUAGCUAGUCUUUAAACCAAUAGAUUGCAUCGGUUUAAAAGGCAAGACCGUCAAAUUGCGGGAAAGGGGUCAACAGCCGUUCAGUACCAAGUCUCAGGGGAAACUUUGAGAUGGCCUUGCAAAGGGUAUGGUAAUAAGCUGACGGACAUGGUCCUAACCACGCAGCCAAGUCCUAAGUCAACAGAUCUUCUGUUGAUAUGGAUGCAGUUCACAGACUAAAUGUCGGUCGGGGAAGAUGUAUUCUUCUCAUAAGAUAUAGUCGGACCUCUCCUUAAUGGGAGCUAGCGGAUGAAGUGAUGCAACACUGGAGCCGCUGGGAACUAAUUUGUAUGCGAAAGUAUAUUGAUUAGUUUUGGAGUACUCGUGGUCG
- experimental.setup: 30 °C
readout.type: self-splicing fitness (ln)
When you answer, write just the number.

Would you please look over these solved cases?
GAUAAGCAAUAUUACGCGCG	-0.359
AUGAAGCAAUAUUACGGAAU	-0.972
CAUCAGCAAUAUUACGCAGA	-2.69
GCAGAGCAAUAUUACGAGUC	-2.97
CUCAAGCAAUAUUACGACAA	-2.86
UCAGAGCAAUAUUACGUGUA	-2.57
AGCCAGCAAUAUUACGUUGA	-3.31

## Input Which self-splicing fitness (ln) is reported for this sequence? CGUAAGCAAUAUUACGACUA
## Output -2.29
